experiment: The binding affinity at 5-hydroxytryptamine 1D receptor was determined using [3H]5-CT
assay endpoint: Ki (nM)
// note: answer is a bare numeric in nM

### Prompt Hello, please tell me recorded Ki for this one: COc1cccc2c1N1CCN(C)C[C@@H]1c1ccccc1C2
### Response 1470

Reference source for all entries: BindingDB's records for doi:10.1021/jm010566d
